Test system: Acinetobacter baumannii
assayName: Antibacterial activity against gram-negative Acinetobacter baumannii AB250 by CLSI method
Assay type: functional
Each entry below carries its recorded log10(MIC).
observable: log10(MIC) (log10 of the value in mg/L)

INSERT INTO results (compound, targetentity, recordedresult) VALUES
  ('CN1CCCCC1c1cc(O)c2c(c1Cl)C[C@H]1C[C@H]3[C@H](N(C)C)C(O)=C(C(N)=O)C(=O)[C@@]3(O)C(O)=C1C2=O (stereo partly drawn)', 'Acinetobacter baumannii', 0.30),
  ('CN(C)[C@@H]1C(O)=C(C(N)=O)C(=O)[C@@]2(O)C(O)=C3C(=O)c4c(O)cc([C@@H]5CCCN5)c(F)c4C[C@H]3C[C@@H]12', 'Acinetobacter baumannii', 1.51),
  ('CN1CCCC1c1cc(O)c2c(c1Cl)C[C@H]1C[C@H]3[C@H](N(C)C)C(O)=C(C(N)=O)C(=O)[C@@]3(O)C(O)=C1C2=O (stereo partly drawn)', 'Acinetobacter baumannii', -0.30),
  ('CN(C)[C@@H]1C(O)=C(C(N)=O)C(=O)[C@@]2(O)C(O)=C3C(=O)c4c(O)cc(-c5ccncc5)c(Cl)c4C[C@H]3C[C@@H]12', 'Acinetobacter baumannii', 0.30),
  ('CN(C)c1cc(NC(=O)CNC(C)(C)C)c(O)c2c1C[C@H]1C[C@H]3[C@H](N(C)C)C(O)=C(C(N)=O)C(=O)[C@@]3(O)C(O)=C1C2=O [TIGECYCLINE]', 'Acinetobacter baumannii', 0.90),
  ('CC1CCNC1c1cc(O)c2c(c1C(F)(F)F)C[C@H]1C[C@H]3[C@H](N(C)C)C(O)=C(C(N)=O)C(=O)[C@@]3(O)C(O)=C1C2=O (stereo partly drawn)', 'Acinetobacter baumannii', 0.00),
  ('CN(C)[C@@H]1C(O)=C(C(N)=O)C(=O)[C@@]2(O)C(O)=C3C(=O)c4c(O)cc([C@H]5CCCN5)c(C(F)(F)F)c4C[C@H]3C[C@@H]12', 'Acinetobacter baumannii', 0.30),
  ('CC1CCC(c2cc(O)c3c(c2C(F)(F)F)C[C@H]2C[C@H]4[C@H](N(C)C)C(O)=C(C(N)=O)C(=O)[C@@]4(O)C(O)=C2C3=O)N1C (stereo partly drawn)', 'Acinetobacter baumannii', 0.30),
  ('CN(C)[C@@H]1C(O)=C(C(N)=O)C(=O)[C@@]2(O)C(O)=C3C(=O)c4c(O)cc([C@@H]5CCCN5CC5CC5)c(C(F)(F)F)c4C[C@H]3C[C@@H]12', 'Acinetobacter baumannii', 0.60),
  ('CCN1CCC[C@H]1c1cc(O)c2c(c1C(F)(F)F)C[C@H]1C[C@H]3[C@H](N(C)C)C(O)=C(C(N)=O)C(=O)[C@@]3(O)C(O)=C1C2=O', 'Acinetobacter baumannii', 0.00),
  ('CN1CCCCCC1c1cc(O)c2c(c1Cl)C[C@H]1C[C@H]3[C@H](N(C)C)C(O)=C(C(N)=O)C(=O)[C@@]3(O)C(O)=C1C2=O (stereo partly drawn)', 'Acinetobacter baumannii', 0.30),
  ('CN(C)[C@@H]1C(O)=C(C(N)=O)C(=O)[C@@]2(O)C(O)=C3C(=O)c4c(O)cc([C@@H]5CCCN5C)c(C(F)(F)F)c4C[C@H]3C[C@@H]12', 'Acinetobacter baumannii', -0.60),
  ('CC(C)N1CCC[C@H]1c1cc(O)c2c(c1C(F)(F)F)C[C@H]1C[C@H]3[C@H](N(C)C)C(O)=C(C(N)=O)C(=O)[C@@]3(O)C(O)=C1C2=O', 'Acinetobacter baumannii', 0.30),
  ('CC1CCC(c2cc(O)c3c(c2C(F)(F)F)C[C@H]2C[C@H]4[C@H](N(C)C)C(O)=C(C(N)=O)C(=O)[C@@]4(O)C(O)=C2C3=O)N1 (stereo partly drawn)', 'Acinetobacter baumannii', -0.30),
  ('CCCN1CCC[C@H]1c1cc(O)c2c(c1C(F)(F)F)C[C@H]1C[C@H]3[C@H](N(C)C)C(O)=C(C(N)=O)C(=O)[C@@]3(O)C(O)=C1C2=O', 'Acinetobacter baumannii', 0.60);
